Cited source: ChEMBL document CHEMBL3351712

Consider the following molecules; for each one, report its CC50.
Tested on: Vero
experiment-notes: Cytotoxicity against african green monkey Vero cells
Format: cell-based
condition-description: chlorocebus sabaeus, vero
Report the figure in µM without appending any unit label.

// CCCCCCCCCCCC(=O)Nc1nc(N)nc2c1ncn2[C@H]1CO[C@@H](CO)O1 : CC50 value = 53

// CCCCCCCCCCCCCCCC(=O)Nc1nc(N)nc2c1ncn2[C@H]1CO[C@@H](CO)O1 : CC50 value = 90

// Cc1cn([C@H]2C[C@H](N=[N+]=[N-])[C@@H](CO)O2)c(=O)[nH]c1=O : CC50 value = 56

// CCCCCCCCCCCCCC(=O)Nc1nc(N)nc2c1ncn2[C@H]1CO[C@@H](CO)O1 : CC50 value = 7.7
